- method notes: Inhibition of ABCB1 in human K562/A02 cells assessed as potentiation of adriamycin-induced cytotoxicity by measuring ADR IC50 at 0.05 uM measured after 48 hrs by MTT assay (Rvb = 43.75 uM)
quantity name: pIC50
pIC50 here: minus log base 10 of the concentration, concentration in moles per litre.

Briefly, pIC50 measured for COc1cc2c(cc1OC)CN(CCn1cc(COc3ccccc3C(=O)Nc3ccc(C(C)(C)C)cc3)nn1)CC2 : 4.43

---

- method notes: Inhibition of ABCB1 in human K562/A02 cells assessed as potentiation of adriamycin-induced cytotoxicity by measuring ADR IC50 at 0.5 uM measured after 48 hrs by MTT assay (Rvb = 43.75 uM)
quantity name: pIC50
pIC50 here: minus log base 10 of the concentration, concentration in moles per litre.

Briefly, pIC50 measured for COc1cc2c(cc1OC)CN(CCn1cc(COc3ccccc3C(=O)Nc3ccc(C(C)(C)C)cc3)nn1)CC2 : 4.90

---

- method notes: Inhibition of ABCB1 in human K562/A02 cells assessed as potentiation of adriamycin-induced cytotoxicity by measuring ADR IC50 measured after 48 hrs by MTT assay (Rvb = 51.34 +/- 5.1 uM)
quantity name: IC50
Write the figure, then the unit, nothing else.

Briefly, IC50 measured for COc1cc2c(cc1OC)CN(CCn1cc(COc3ccccc3C(=O)Nc3ccc(C(C)(C)C)cc3)nn1)CC2 : 1260 nM

Briefly, IC50 measured for COc1cc2c(cc1OC)CN(CCc1ccc(NC(=O)c3cc(OC)c(OC)cc3NC(=O)c3cnc4ccccc4c3)cc1)CC2 : 1600 nM

---

- method notes: Inhibition of ABCB1 in human K562/A02 cells assessed as potentiation of adriamycin-induced cytotoxicity by measuring ADR IC50 at 1 uM measured after 48 hrs by MTT assay (Rvb = 43.75 uM)
quantity name: IC50
Write the figure, then the unit, nothing else.

Briefly, IC50 measured for COc1cc2c(cc1OC)CN(CCn1cc(COc3ccccc3C(=O)Nc3ccc(C(C)(C)C)cc3)nn1)CC2 : 6.02 µM

---

Kindly supply the reported pIC50 values for the records listed here.
- method notes: Inhibition of ABCB1 in human K562/A02 cells assessed as potentiation of adriamycin-induced cytotoxicity by measuring ADR IC50 treated for 48 hrs followed by compound washout measured after 12 hrs by MTT assay (Rvb = 51.34 +/- 5.1 uM)
pIC50 here: minus log base 10 of the concentration, concentration in moles per litre.

Briefly, pIC50 measured for COc1cc2c(cc1OC)CN(CCc1ccc(NC(=O)c3cc(OC)c(OC)cc3NC(=O)c3cnc4ccccc4c3)cc1)CC2 : 5.08

Briefly, pIC50 measured for COc1cc2c(cc1OC)CN(CCn1cc(COc3ccccc3C(=O)Nc3ccc(C(C)(C)C)cc3)nn1)CC2 : 4.99

---

- method notes: Inhibition of ABCB1 in human K562/A02 cells assessed as potentiation of adriamycin-induced cytotoxicity by measuring ADR IC50 at 0.025 uM measured after 48 hrs by MTT assay (Rvb = 43.75 uM)
quantity name: pIC50
pIC50 here: minus log base 10 of the concentration, concentration in moles per litre.

Briefly, pIC50 measured for COc1cc2c(cc1OC)CN(CCn1cc(COc3ccccc3C(=O)Nc3ccc(C(C)(C)C)cc3)nn1)CC2 : 4.43

---

- method notes: Inhibition of ABCB1 in human K562/A02 cells assessed as potentiation of adriamycin-induced cytotoxicity by measuring ADR IC50 at 5 uM measured after 48 hrs by MTT assay (Rvb = 43.75 to 96.91 uM)
quantity name: pIC50
pIC50 here: minus log base 10 of the concentration, concentration in moles per litre.

Briefly, pIC50 measured for COc1cc2c(cc1OC)CN(CCn1cc(COc3ccccc3C(=O)Nc3cccc([N+](=O)[O-])c3)nn1)CC2 : 4.56

Briefly, pIC50 measured for COc1ccc(NC(=O)c2ccccc2OCc2cn(CCN3CCc4cc(OC)c(OC)cc4C3)nn2)cc1 : 5.08

Briefly, pIC50 measured for COc1cc2c(cc1OC)CN(CCn1cc(COc3ccccc3NC(=O)c3ccc(C(C)(C)C)cc3)nn1)CC2 : 5.47

Briefly, pIC50 measured for COc1cc2c(cc1OC)CN(CCn1cc(COc3ccccc3C(=O)Nc3ccc(F)cc3)nn1)CC2 : 5.08

Briefly, pIC50 measured for COc1cc2c(cc1OC)CN(CCc1ccc(NC(=O)c3cc(OC)c(OC)cc3NC(=O)c3cnc4ccccc4c3)cc1)CC2 : 5.71

Briefly, pIC50 measured for COc1cc2c(cc1OC)CN(CCn1cc(COc3ccccc3C(=O)Nc3ccccc3)nn1)CC2 : 4.59

Briefly, pIC50 measured for COc1ccc(NC(=O)c2ccccc2OCc2cn(CCN3CCc4cc(OC)c(OC)cc4C3)nn2)cc1OC : 5.11

Briefly, pIC50 measured for CCCCc1ccc(NC(=O)c2ccccc2OCc2cn(CCN3CCc4cc(OC)c(OC)cc4C3)nn2)cc1 : 5.20

Briefly, pIC50 measured for COc1cc2c(cc1OC)CN(CCn1cc(COc3ccccc3C(=O)Nc3ccc(C)cc3)nn1)CC2 : 5.12

Briefly, pIC50 measured for COc1cc2c(cc1OC)CN(CCn1cc(COc3ccccc3C(=O)Nc3ccccc3[N+](=O)[O-])nn1)CC2 : 4.57

Briefly, pIC50 measured for COc1cc2c(cc1OC)CN(CCn1cc(COc3ccccc3C(=O)Nc3cc(OC)c(OC)c(OC)c3)nn1)CC2 : 4.50

Briefly, pIC50 measured for COc1cc2c(cc1OC)CN(CCn1cc(COc3ccccc3C(=O)Nc3cccc(C)c3)nn1)CC2 : 4.92

Briefly, pIC50 measured for COc1cc2c(cc1OC)CN(CCn1cc(COc3ccccc3C(=O)Nc3ccc(OC(F)(F)F)cc3)nn1)CC2 : 5.34

Briefly, pIC50 measured for COc1cc2c(cc1OC)CN(CCn1cc(COc3ccccc3C(=O)Nc3ccc([N+](=O)[O-])cc3)nn1)CC2 : 4.68

Briefly, pIC50 measured for COc1cc2c(cc1OC)CN(CCn1cc(COc3ccccc3C(=O)Nc3ccc(Cl)cc3)nn1)CC2 : 5.16

Briefly, pIC50 measured for COc1cc2c(cc1OC)CN(CCn1cc(COc3ccccc3C(=O)Nc3cccc(Cl)c3)nn1)CC2 : 4.64

Values compiled from BindingDB's records for doi:10.1016/j.bmc.2017.06.015.
